Where do the numbers come from? From patent US12091402B2.

targetUnderTest: ASGPR (Homo sapiens)
Sequence (P07306 1-291): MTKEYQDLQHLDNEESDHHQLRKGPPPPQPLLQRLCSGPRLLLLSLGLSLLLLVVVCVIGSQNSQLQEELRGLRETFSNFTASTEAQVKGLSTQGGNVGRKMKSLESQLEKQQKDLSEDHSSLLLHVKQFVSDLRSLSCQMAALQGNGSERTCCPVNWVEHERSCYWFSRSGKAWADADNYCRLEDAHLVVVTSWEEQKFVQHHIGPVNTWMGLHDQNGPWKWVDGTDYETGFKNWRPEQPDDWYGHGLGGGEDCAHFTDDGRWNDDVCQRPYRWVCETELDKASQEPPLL
assay: Affinity to ASGPR by surface plasmon resonance (SPR)
pKd: −log10 of the molar value.
Field: pKd. Provide a value for each of the compounds that follow.

Ask: Entry `CC(C)C[C@@H]1NC(=O)[C@H](Cc2cnc[nH]2)NC(=O)[C@H](Cc2c[nH]c3ccccc23)NC(=O)[C@H](C)NC(=O)[C@@H]2CSSC[C@H](NC(=O)[C@H](Cc3c[nH]c4ccccc34)NC(=O)[C@H](C(C)C)NC(=O)[C@H](CC(C)C)NC(=O)[C@H](CCC(=O)O)NC(=O)CNC1=O)C(=O)N[C@@H]([C@@H](C)O)C(=O)N1CCC[C@@H]1C(=O)N1C[C@@H](NC(=O)c3ccc(N4CCC(CN5CCN(C[C@H]6OC[C@H](Nc7cncc(C(F)(F)F)n7)[C@@H](O)[C@H]6O)CC5)CC4)nn3)C[C@H]1C(=O)N[C@@H](CC(=O)O)C(=O)N2` has what pKd?
Reply: > 7.00

Ask: Entry OC[C@H]1O[C@H](OCC2CO2)[C@H](Nc2nccc(C(F)(F)F)n2)[C@@H](O)[C@H]1O (stereo partly shown) has what pKd?
Reply: > 6.00

Ask: Entry `NC(COCCC(=O)NCCOCCOCCOCCOC[C@H]1OC[C@H](Nc2cncc(C(F)(F)F)n2)[C@@H](O)[C@H]1O)COCCC(=O)NCCOCCOCCOCCOC[C@H]1OC[C@H](Nc2cncc(C(F)(F)F)n2)[C@@H](O)[C@H]1O` has what pKd?
Reply: > 7.00

Ask: Entry CC(C)C[C@@H]1NC(=O)[C@H](Cc2cnc[nH]2)NC(=O)[C@H](Cc2c[nH]c3ccccc23)NC(=O)[C@H](C)NC(=O)[C@@H]2CSSC[C@H](NC(=O)[C@H](Cc3c[nH]c4ccccc34)NC(=O)[C@H](C(C)C)NC(=O)[C@H](CC(C)C)NC(=O)[C@H](CCC(=O)O)NC(=O)CNC1=O)C(=O)N[C@@H]([C@@H](C)O)C(=O)N1CCC[C@@H]1C(=O)N1C[C@@H](NC(=O)C3CCC(C(=O)NC[C@H]4OC[C@H](Nc5cncc(C(F)(F)F)n5)[C@@H](O)[C@H]4O)CC3)C[C@H]1C(=O)N[C@@H](CC(=O)O)C(=O)N2 (stereo partly shown) has what pKd?
Reply: 6.30 to 7.00

Ask: Entry `O=C(O)CC(=O)NC[C@H]1OC[C@H](Nc2cncc(C(F)(F)F)n2)[C@@H](O)[C@H]1O` has what pKd?
Reply: > 6.00

Ask: Entry `N=C(N)N[C@H]1CO[C@H](COCc2ccccc2)[C@H](OCc2ccccc2)[C@@H]1OCc1ccccc1` has what pKd?
Reply: < 4.70

Ask: Entry `OCc1cnn(C[C@H]2OC[C@H](Nc3nccc(C(F)(F)F)n3)[C@@H](O)[C@H]2O)c1` has what pKd?
Reply: 5.00 to 6.00

Ask: Entry `N#Cc1nc(N[C@H]2CO[C@H](CO)[C@H](O)[C@@H]2O)cc(C(F)(F)F)n1` has what pKd?
Reply: < 4.70

Ask: Entry `CC(C)C[C@@H]1NC(=O)[C@H](Cc2cnc[nH]2)NC(=O)[C@H](Cc2c[nH]c3ccccc23)NC(=O)[C@H](C)NC(=O)[C@@H]2CSSC[C@H](NC(=O)[C@H](Cc3c[nH]c4ccccc34)NC(=O)[C@H](C(C)C)NC(=O)[C@H](CC(C)C)NC(=O)[C@H](CCC(=O)O)NC(=O)CNC1=O)C(=O)N[C@@H]([C@@H](C)O)C(=O)N1CCC[C@@H]1C(=O)N1C[C@@H](NC(=O)CCCc3cn(C[C@H]4OC[C@H](Nc5nccc(C(F)(F)F)n5)[C@@H](O)[C@H]4O)nn3)C[C@H]1C(=O)N[C@@H](CC(=O)O)C(=O)N2` has what pKd?
Reply: < 6.00

Ask: Entry `[N-]=[N+]=NCCCCCC(=O)NC(COCCC(=O)NCCOCCOCCOCCOC[C@H]1OC[C@H](Nc2cncc(C(F)(F)F)n2)[C@@H](O)[C@H]1O)COCCC(=O)NCCOCCOCCOCCOC[C@H]1OC[C@H](Nc2cncc(C(F)(F)F)n2)[C@@H](O)[C@H]1O` has what pKd?
Reply: > 7.00

Ask: Entry `O=C(O)COc1ccc(COC[C@H]2OC[C@H](Nc3cncc(C(F)(F)F)n3)[C@@H](O)[C@H]2O)cc1` has what pKd?
Reply: > 7.00

Ask: Entry `C[C@@H]1O[C@H](CO)[C@H](O)[C@H](O)[C@H]1N=[N+]=[N-]` has what pKd?
Reply: < 4.70

Ask: Entry `O=C(CCOCC(COCCC(=O)NCCOCCOCCOCCOC[C@@]12CO[C@@H](O1)[C@H](Nc1nc(Cl)ns1)[C@@H](O)[C@H]2O)NC(=O)COCCOCCOCCNc1ccc([N+](=O)[O-])cc1[N+](=O)[O-])NCCOCCOCCOCCOC[C@@]12CO[C@@H](O1)[C@H](Nc1nc(Cl)ns1)[C@@H](O)[C@H]2O` has what pKd?
Reply: > 7.00

Ask: Entry `NC(=O)c1sc(N[C@H]2CO[C@H](CO)[C@H](O)[C@@H]2O)nc1C(F)(F)F` has what pKd?
Reply: < 4.70

Ask: Entry `N#Cc1ccnnc1N[C@H]1[C@H]2OC[C@](CO)(O2)[C@H](O)[C@@H]1O` has what pKd?
Reply: 5.00 to 6.00

Ask: Entry `OC[C@@]12CO[C@@H](O1)[C@H](Nc1nc3ccccc3o1)[C@@H](O)[C@H]2O` has what pKd?
Reply: 5.00 to 6.00

Ask: Entry `OC[C@@]12CO[C@@H](O1)[C@H](Nc1ncc3c(C(F)(F)F)n[nH]c3n1)[C@@H](O)[C@H]2O` has what pKd?
Reply: < 4.70

Ask: Entry `O=C(O)COCCOCCOCC(=O)NC(COCCC(=O)NCCOCCOCCOCCOC[C@H]1OC[C@H](Nc2cncc(C(F)(F)F)n2)[C@@H](O)[C@H]1O)COCCC(=O)NCCOCCOCCOCCOC[C@H]1OC[C@H](Nc2cncc(C(F)(F)F)n2)[C@@H](O)[C@H]1O` has what pKd?
Reply: > 7.00

Ask: Entry `CCOC(=O)c1ccc(Cl)nc1N[C@H]1[C@H]2OC[C@](CO)(O2)[C@H](O)[C@@H]1O` has what pKd?
Reply: 5.00 to 6.00
